tested on: involucrin (ivl); assay: ivl expression promotion test (real time PCR); assay type: cell-based, human; conditions: 0.5 mM, 48 hours, NHEK (NB), control 1.00, GAPDH corrected
Marks after values point to notes of the source that are not given here.
The following compounds are listed with their measured Involucrin RNA expression amount values.

O=C(O)[C@@H]1CCCN1 ... 0.78 ± 0.01**
C[C@H](N)C(=O)O ... 0.64 ± 0.15**

Prompt: Give the measured Involucrin RNA expression amount of `NCC(=O)O` .
Completion: 0.71 ± 0.03**

// provenance: patent US20160082087A1
